assay: Quantification in rat brain tissue; assay type: in vivo, Wistar rats; conditions: Wistar, intraperitoneal, 10 mg/kg, total brain concentration, highest behaviorally tested dose
quantity_name: concentration at 20 min

Recorded result, C#Cc1cccc2c1[nH]c1cnc(C(=O)OC(C)(C)C)cc12 , concentration at 20 min: < 100 nM
